Test system: MDA-MB-231 (TNB) cells
Assay: Cell growth inhibition (CCK8 cytotoxicity assay), MDA-MB-231
Type: cell-based
Conditions: Homo sapiens, MDA-MB-231, 48 h, 48 h treatment, read-out: Average EC50 ± SD, cell growth inhibition
PARAMETER: EC50 (µM)
// units = µM; emit number, no label

IN: Query: EC50; subject: `Cc1[nH]c2ccccc2c1C1=C(c2c(C)[nH]c3ccccc23)C(=O)N(CCCCCCC(=O)NO)C1=O`
OUT: 1.2

* * *

Tested on: T47D (ER+) cells
Test: Cell growth inhibition (CCK8 cytotoxicity assay), T47D
Type: cell-based
Conditions: Homo sapiens, T47D, 48 h, 48 h treatment, read-out: Average EC50 ± SD, cell growth inhibition
PARAMETER: pEC50
Scale explanation: pEC50 corresponds to minus log10 of a concentration expressed in moles per litre.

IN: Under T47D (ER+) cells: pEC50 value of `Cc1[nH]c2ccccc2c1C1=C(c2c(C)[nH]c3ccccc23)C(=O)N(CCCCCCC(=O)NO)C1=O` ?
OUT: 6.49

* * *

Target: HDAC3 (Homo sapiens, UniProt O15379)
Sequence (O15379 whole entry, canonical isoform): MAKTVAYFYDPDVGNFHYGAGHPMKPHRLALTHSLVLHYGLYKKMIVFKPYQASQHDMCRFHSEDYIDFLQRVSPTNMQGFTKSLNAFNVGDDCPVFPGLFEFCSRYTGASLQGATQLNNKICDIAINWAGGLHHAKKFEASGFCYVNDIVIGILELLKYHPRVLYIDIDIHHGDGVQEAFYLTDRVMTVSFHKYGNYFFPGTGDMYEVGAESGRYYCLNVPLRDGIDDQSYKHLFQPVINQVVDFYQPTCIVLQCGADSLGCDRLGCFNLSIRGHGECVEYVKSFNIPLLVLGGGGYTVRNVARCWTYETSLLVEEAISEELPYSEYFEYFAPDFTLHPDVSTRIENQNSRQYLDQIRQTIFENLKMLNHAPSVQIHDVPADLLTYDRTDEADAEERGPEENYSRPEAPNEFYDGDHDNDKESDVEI
Sequence (Q9Y618 395-489 partner limits assumed): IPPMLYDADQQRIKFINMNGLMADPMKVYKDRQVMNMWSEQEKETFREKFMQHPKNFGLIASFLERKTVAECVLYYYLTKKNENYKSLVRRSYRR
Test: In vitro HDAC isoform inhibition, purified recombinant HDAC3
Conditions: purified recombinant protein; ± margin of error of 95% confidence interval; read-out: IC50 HDAC inhibition activity in vitro, HDAC 3
PARAMETER: IC50 (nM)
// units = nM; emit number, no label

IN: Query: IC50; subject: Cc1[nH]c2ccccc2c1C1=C(c2c(C)[nH]c3ccccc23)C(=O)N(CCCCCCC(=O)NO)C1=O [SP-1-303]
OUT: 14

* * *

Target: HDAC6 (Homo sapiens)
Sequence (Q9UBN7 whole entry, canonical isoform): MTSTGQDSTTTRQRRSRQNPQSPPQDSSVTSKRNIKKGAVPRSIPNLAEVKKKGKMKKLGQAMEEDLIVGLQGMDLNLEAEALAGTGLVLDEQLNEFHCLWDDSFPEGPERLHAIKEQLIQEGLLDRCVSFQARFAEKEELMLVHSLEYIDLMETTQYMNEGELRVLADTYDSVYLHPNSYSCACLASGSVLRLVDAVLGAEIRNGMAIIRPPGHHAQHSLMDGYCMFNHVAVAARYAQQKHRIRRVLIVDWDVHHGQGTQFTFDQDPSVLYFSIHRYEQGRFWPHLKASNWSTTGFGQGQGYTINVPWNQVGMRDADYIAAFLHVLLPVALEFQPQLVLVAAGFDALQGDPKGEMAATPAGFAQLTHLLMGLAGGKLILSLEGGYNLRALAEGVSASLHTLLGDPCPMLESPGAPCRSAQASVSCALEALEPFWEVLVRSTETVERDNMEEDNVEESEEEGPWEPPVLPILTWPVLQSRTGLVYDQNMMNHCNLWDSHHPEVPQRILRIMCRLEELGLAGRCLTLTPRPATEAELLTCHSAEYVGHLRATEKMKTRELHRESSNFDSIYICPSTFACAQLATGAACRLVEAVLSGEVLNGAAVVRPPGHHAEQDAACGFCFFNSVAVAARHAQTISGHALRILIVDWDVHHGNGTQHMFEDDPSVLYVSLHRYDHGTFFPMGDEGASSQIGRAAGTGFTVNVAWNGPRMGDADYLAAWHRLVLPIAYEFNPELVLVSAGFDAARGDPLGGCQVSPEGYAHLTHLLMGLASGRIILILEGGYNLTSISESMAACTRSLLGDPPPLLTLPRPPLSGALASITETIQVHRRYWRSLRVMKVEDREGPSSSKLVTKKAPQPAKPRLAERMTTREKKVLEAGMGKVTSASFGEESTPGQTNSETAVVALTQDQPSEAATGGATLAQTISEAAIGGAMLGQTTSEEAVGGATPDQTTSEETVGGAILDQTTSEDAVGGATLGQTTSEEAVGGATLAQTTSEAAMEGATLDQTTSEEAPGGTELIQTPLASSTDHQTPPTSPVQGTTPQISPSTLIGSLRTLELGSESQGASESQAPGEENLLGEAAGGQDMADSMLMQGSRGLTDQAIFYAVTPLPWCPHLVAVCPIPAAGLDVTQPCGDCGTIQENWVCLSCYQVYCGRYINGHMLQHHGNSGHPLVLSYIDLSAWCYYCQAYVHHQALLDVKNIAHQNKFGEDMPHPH
Test: In vitro HDAC isoform inhibition, purified recombinant HDAC6
Details: purified recombinant protein; ± margin of error of 95% confidence interval; read-out: IC50 HDAC inhibition activity in vitro, HDAC 6
PARAMETER: IC50 (nM)
// units = nM; emit number, no label

IN: Query: IC50; subject: `Cc1[nH]c2ccccc2c1C1=C(c2c(C)[nH]c3ccccc23)C(=O)N(CCCCCCC(=O)NO)C1=O`
OUT: 435

* * *

Target: HDAC1 (Homo sapiens)
Sequence (Q13547 whole entry, canonical isoform): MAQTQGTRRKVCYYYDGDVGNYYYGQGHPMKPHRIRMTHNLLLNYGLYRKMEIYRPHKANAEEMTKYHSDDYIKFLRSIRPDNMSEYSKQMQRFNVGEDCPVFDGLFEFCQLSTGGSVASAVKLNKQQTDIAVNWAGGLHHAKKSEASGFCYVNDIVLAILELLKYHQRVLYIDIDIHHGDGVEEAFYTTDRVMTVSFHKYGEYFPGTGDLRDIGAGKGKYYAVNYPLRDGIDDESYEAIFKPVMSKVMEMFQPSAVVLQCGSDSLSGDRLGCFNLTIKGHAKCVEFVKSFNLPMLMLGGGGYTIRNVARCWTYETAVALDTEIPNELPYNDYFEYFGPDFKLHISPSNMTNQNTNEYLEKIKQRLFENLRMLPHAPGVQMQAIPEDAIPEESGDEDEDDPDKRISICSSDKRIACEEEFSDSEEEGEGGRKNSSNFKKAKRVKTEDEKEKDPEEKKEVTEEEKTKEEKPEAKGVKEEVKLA
Experiment: In vitro HDAC isoform inhibition, purified recombinant HDAC1
Settings: purified recombinant protein; ± margin of error of 95% confidence interval; read-out: IC50 HDAC inhibition activity in vitro, HDAC 1
PARAMETER: pIC50
Scale explanation: pIC50 corresponds to minus log10 of a concentration expressed in moles per litre.

IN: Query: pIC50; subject: `Cc1[nH]c2ccccc2c1C1=C(c2c(C)[nH]c3ccccc23)C(=O)N(CCCCCCC(=O)NO)C1=O`
OUT: 7.92

* * *

Test: Plasma pharmacokinetics after intravenous administration
Assay type: in vivo, Sprague-Dawley rats
Details: male, Sprague-Dawley, plasma; rat, 20 mg/kg IV; mean value; read-out: tmax, time to reach maximum plasma concentration
PARAMETER: Tmax (min)
// units = min; emit number, no label

IN: Query: Tmax; subject: `Cc1[nH]c2ccccc2c1C1=C(c2c(C)[nH]c3ccccc23)C(=O)N(CCCCCCC(=O)NO)C1=O`
OUT: 4.98

* * *

System: MDA-MB-231 (TNB) cells
Assay: Cell growth inhibition (CCK8 cytotoxicity assay), MDA-MB-231
Assay type: cell-based
Settings: 48 h treatment, read-out: Average EC50 ± SD, cell growth inhibition
PARAMETER: EC50 (nM)
// units = nM; emit number, no label

IN: Under MDA-MB-231 (TNB) cells: EC50 value of `Cc1[nH]c2ccccc2c1C1=C(c2c(C)[nH]c3ccccc23)C(=O)N(CCCCCCC(=O)NO)C1=O` ?
OUT: 1220
